All figures here come from ChEMBL document CHEMBL6127047.

- assay remarks: in vivo
- conditions used: mouse, iv, 3 mg/kg
Where a SMILES comes first, the peptide text is derived from it. [ ]: non-standard residue; d: D form. αMeP = C[C@@]1(C(=O)O)CCCN1
assay metric: half-life (h)
Number only, in h; omit the unit.

// half-life lookup, molecule = C[C@@]1(C(=O)N[C@@H](CCC(=O)O)C(=O)O)CCCN1C(=O)CN [TROFINETIDE] (H-Gly-[αMeP]-Glu-OH) , result: 1.5

====

- assay remarks: clinical
- conditions used: human
assay metric: Vd

// Vd lookup, molecule = `Cc1nsc(-c2nnc3n2CCN(C(=O)c2ccc(F)cc2)[C@@H]3C)n1` , result: 189 L

====

- assay remarks: Apparent volume of distribution at steady state in human at 200 mg
- Assay type: ADME
- conditions used: read-out: Vdss(app)
assay metric: Vd (L)
Number only, in L; omit the unit.

// Vd lookup, compound = N#CCNC(=O)c1ccc(-c2ccnc(Nc3ccc(N4CCOCC4)cc3)n2)cc1 [MOMELOTINIB] , result: 984

====

assay metric: IC50

IC50 value, target or system Tyrosine-protein kinase BTK (Homo sapiens), for `COc1ccc(F)cc1C(=O)NCc1ccc(-c2nn([C@H](C)C(F)(F)F)c(N)c2C(N)=O)cc1` : 5.69 nM

====

- assay remarks: AUC in human
- Format: ADME
assay metric: AUC (ng·h/mL)
Number only, in ng·h/mL; omit the unit.

// AUC lookup, molecule = CCC[C@H](N[C@H]1CCc2cc(F)cc(F)c2C1)C(=O)Nc1cn(C(C)(C)CNCC(C)(C)C)cn1 [NIROGACESTAT] , result: 3370

====

- system name: UniProt P29371
- Sequence (P29371 whole entry): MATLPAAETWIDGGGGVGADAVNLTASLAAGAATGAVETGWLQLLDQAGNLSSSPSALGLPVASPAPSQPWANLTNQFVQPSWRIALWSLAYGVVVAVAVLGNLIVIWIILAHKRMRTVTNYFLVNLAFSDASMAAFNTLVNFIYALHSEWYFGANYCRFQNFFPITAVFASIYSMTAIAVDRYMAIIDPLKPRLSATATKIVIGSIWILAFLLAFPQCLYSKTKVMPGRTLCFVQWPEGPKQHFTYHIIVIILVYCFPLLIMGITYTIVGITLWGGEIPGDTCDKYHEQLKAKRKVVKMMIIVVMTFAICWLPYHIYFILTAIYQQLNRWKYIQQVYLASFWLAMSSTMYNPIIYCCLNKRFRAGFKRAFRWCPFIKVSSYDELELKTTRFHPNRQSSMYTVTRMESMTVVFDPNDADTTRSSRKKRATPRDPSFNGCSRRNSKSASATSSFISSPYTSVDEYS
assay metric: Ki (nM)
Number only, in nM; omit the unit.

// Ki lookup, compound = Cc1nsc(-c2nnc3n2CCN(C(=O)c2ccc(F)cc2)[C@@H]3C)n1 [FEZOLINETANT] , result: 21.8

====

Task for the reader: assign each of the following compounds its reported bioavailability.
- assay remarks: clinical
- conditions used: human, in vivo, po
- Description: Oral bioavailability in human
Number only, in %; omit the unit.

// bioavailability lookup, compound = CCC[C@H](N[C@H]1CCc2cc(F)cc(F)c2C1)C(=O)Nc1cn(C(C)(C)CNCC(C)(C)C)cn1 [NIROGACESTAT] , result: 19

// bioavailability lookup, compound = `COc1ccc(F)cc1C(=O)NCc1ccc(-c2nn([C@H](C)C(F)(F)F)c(N)c2C(N)=O)cc1` , result: 85.5

// bioavailability lookup, compound = C=CC(=O)N1C[C@H](Nc2ncnc3[nH]ccc23)CC[C@@H]1C [RITLECITINIB] , result: 64

====

Receptor-type tyrosine-protein kinase FLT3 (Homo sapiens, UniProt P36888, ITD) data, read-out pIC50
Sequence (P36888 whole entry, looked up, change not shown): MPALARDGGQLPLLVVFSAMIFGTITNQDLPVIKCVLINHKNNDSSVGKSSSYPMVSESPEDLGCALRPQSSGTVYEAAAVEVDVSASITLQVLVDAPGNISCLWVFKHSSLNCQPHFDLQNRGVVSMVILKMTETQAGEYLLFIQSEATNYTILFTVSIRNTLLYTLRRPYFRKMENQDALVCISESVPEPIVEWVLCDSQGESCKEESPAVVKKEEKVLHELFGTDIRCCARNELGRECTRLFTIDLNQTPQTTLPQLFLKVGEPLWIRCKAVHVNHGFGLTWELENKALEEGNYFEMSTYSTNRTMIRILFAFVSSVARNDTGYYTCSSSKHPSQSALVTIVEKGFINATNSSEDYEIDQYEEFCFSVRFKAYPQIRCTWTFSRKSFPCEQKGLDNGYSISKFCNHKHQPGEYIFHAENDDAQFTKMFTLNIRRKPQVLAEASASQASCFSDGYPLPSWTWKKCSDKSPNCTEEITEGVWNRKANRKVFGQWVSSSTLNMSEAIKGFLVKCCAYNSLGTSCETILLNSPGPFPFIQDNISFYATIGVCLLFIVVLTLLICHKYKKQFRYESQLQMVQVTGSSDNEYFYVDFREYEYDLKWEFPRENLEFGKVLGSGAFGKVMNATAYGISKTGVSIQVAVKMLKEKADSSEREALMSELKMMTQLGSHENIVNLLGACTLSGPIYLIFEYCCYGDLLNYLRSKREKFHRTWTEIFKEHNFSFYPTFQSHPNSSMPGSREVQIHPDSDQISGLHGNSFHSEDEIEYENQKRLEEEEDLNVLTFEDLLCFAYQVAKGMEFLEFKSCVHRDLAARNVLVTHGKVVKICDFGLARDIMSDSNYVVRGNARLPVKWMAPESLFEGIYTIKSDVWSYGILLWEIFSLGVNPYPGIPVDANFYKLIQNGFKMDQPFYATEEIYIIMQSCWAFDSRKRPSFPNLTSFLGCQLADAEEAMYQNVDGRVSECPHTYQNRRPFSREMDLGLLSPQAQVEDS
The value called pIC50 is obtained by taking minus log10 of the concentration in mol/L.

// pIC50 lookup, molecule = `CC(C)(C)c1cc(NC(=O)Nc2ccc(-c3cn4c(n3)sc3cc(OCCCN5CCOCC5)ccc34)cc2)no1` , result: 9.10

// pIC50 lookup, molecule = `CC(C)(C)c1cc(NC(=O)Nc2ccc(-c3cn4c(n3)sc3cc(OCCN5CCCCC5)ccc34)cc2)no1` , result: 9.06

====

- assay remarks: Plasma protein binding in human
- Assay type: ADME, cell-free
- conditions used: read-out: PPB
assay metric: fraction unbound
Lab note: jot down the number only; don't add units.

// fraction unbound lookup, compound = N#CCNC(=O)c1ccc(-c2ccnc(Nc3ccc(N4CCOCC4)cc3)n2)cc1 [MOMELOTINIB] , result: 0.09
